- MEASUREMENT TARGET: KCC2 (Homo sapiens)
- Sequence (Q9H2X9 whole entry): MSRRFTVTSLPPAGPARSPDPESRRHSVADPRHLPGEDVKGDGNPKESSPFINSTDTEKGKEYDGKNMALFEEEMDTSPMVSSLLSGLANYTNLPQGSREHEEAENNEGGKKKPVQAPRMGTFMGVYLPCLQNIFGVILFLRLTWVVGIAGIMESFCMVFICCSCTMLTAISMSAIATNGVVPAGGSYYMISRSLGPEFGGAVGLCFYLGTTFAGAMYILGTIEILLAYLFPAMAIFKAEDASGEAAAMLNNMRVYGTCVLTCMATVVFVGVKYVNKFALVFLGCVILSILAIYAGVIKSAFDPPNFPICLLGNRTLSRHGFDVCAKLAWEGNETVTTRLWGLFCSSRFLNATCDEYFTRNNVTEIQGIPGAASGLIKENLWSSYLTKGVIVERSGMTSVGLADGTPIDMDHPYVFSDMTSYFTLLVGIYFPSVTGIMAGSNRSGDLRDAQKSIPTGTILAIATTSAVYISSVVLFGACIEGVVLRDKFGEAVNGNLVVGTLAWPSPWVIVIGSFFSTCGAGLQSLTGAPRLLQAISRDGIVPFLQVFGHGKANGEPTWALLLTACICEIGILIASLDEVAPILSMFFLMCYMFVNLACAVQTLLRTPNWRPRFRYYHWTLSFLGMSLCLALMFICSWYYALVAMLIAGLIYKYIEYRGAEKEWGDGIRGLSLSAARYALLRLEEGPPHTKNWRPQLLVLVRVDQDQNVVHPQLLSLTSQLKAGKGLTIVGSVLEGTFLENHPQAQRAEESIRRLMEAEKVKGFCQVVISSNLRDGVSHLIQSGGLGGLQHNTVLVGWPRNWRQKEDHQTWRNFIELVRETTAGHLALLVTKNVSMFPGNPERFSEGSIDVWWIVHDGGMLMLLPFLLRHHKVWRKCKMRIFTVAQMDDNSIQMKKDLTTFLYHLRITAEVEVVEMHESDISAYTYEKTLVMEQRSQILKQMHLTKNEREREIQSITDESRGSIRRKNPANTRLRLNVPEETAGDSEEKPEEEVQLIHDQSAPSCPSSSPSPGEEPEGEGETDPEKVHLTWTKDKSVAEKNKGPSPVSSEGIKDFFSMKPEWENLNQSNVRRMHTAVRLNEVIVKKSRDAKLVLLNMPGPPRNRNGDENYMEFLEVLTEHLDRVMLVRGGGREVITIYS
- PROTOCOL DETAILS: KCC2 thallium transport FLIPR-based assay (Tl+ influx in HEK293 cells expressing KCC2)
- MEASUREMENT CONDITIONS: 90 min compound incubation at RT, thallium flux at 120 s used to determine EC50
REPORTED METRIC: EC50 (µM)

* COC1CCN(c2nc(Nc3ccc(C4CCCCC4)cc3)c3c(n2)C(=O)N(C(C)C)C3)C1 (stereo not drawn) [Example 26] | 3.5
* CC(C)N1Cc2c(Nc3ccc(C4CCCCC4)cc3)nc(N3CCOCC3)nc2C1=O [Example 11] | 2.01
* CC(C)Oc1ccc(Nc2nc(N3CCOC(C4CC4)C3)nc3c2CN(C(C)C)C3=O)cc1 (stereo not drawn) [Example 62] | 5.66
* CCCCCCCOc1ccc(-c2ccc(Nc3nc(N4CCOC(C5CC5)C4)nc4c3CN(C(C)C)C4=O)cc2)cc1 (stereo not drawn) [Example 53] | 0.215
* CCOCCN(C)c1nc(Nc2ccc(C3CCCCC3)cc2)c2c(n1)C(=O)N(C(C)C)C2 [Example 20] | 2.35
* CC(C)N1Cc2c(Nc3ccc(C4CCCCC4)cc3)nc(N3CCOC(CCO)C3)nc2C1=O (stereo not drawn) [Example 27] | 3.58
* CCC(C)c1ccc(Nc2nc(N3CCO[C@H](C)C3)nc3c2CN(C(C)C)C3=O)cc1 (stereo partly drawn) [Example 56] | 3.28
* CC(C)N1Cc2c(Nc3ccc(-c4ccccc4)c(F)c3)nc(N3CCOCC3)nc2C1=O [Example 84] | 2.09
* CC(C)N1Cc2c(Nc3ccc(C4CCCCC4)cc3)nc(N(C)Cc3ccon3)nc2C1=O [Example 22] | 2.79
* CCN(CC)c1nc(Nc2ccc(C3CCCCC3)cc2)c2c(n1)C(=O)N(C(C)C)C2 [Example 34] | 5.21
* C[C@@H]1CN(c2nc3c(c(Nc4ccc(C5CCCCC5)cc4)n2)COC3)CCO1 [Example 90] | 1.71
* CC(C)N1Cc2c(Nc3ccc(C4CCCCC4)cc3)nc(N(C)CCc3ccccn3)nc2C1=O [Example 37] | 6.3
* CC(C)N1Cc2nc(N3CCO[C@H](C)C3)nc(Nc3ccc(C4CCCCC4)cc3)c2C1 [Example 110] | 7.31
* CC(C)N1Cc2c(Nc3ccc(C4CCCCC4)cc3)nc(N3CCSC3)nc2C1=O [Example 19] | 2.04
* CC(C)N1Cc2c(Nc3ccc(C4CCCCC4)cc3)nc(-c3ccnc(C#N)c3)nc2C1=O [Example 41] | 0.518
* CCCN(CCC)c1nc(Nc2ccc(C3CCCCC3)cc2)c2c(n1)C(=O)N(C(C)C)C2 [Example 29] | 3.89
* CC(C)N1Cc2c(Nc3ccc(C4CCCCC4)cc3)nc(C3CCOCC3)nc2C1=O [Example 78] | 3.08
* Cc1cc(-c2nc3c(c(Nc4ccc(C5CCCCC5)cc4)n2)COC3)ccn1 [Example 95] | 3.22
* CCc1cnc2nc(N3CCO[C@H](C)C3)nc(Nc3ccc(C4CCCCC4)cc3)c2c1 [Example 100] | 6.3
* C1=C(c2nc3c(c(Nc4ccc(C5CCC5)cc4)n2)COC3)CCOC1 [Example 91] | 9.92
* CC(C)c1ccc(Nc2nc(N3CCOC(C4CC4)C3)nc3c2CN(C(C)C)C3=O)cc1 (stereo not drawn) [Example 10] | 2.99
* CC(C)N1Cc2nc(N3CCOCC3)nc(Nc3ccc(C4CCCCC4)cc3)c2C1 [Example 109] | 6.34
* NC(=O)c1cnc2nc(N3CCOC(C4CC4)C3)nc(Nc3ccc(C4CCCCC4)cc3)c2c1 (stereo not drawn) [Example 105] | 1.17
* CCCc1ccc(Nc2nc(N3CCOC(C4CC4)C3)nc3c2CN(C(C)C)C3=O)cc1 (stereo not drawn) [Example 59] | 4.46
* CCN1Cc2c(Nc3ccc(C(C)C)cc3)nc(N3CCO[C@H](C)C3)nc2C1=O [Example 67] | 4.07
* CC(C)N1Cc2c(Nc3ccc(-c4ccsc4)cc3)nc(N3CCOCC3)nc2C1=O [Example 114] | 7.3
* CC(C)c1ccc(Nc2nc(N3CCOCC3C)nc3c2CN(C(C)C)C3=O)cc1 (stereo not drawn) [Example 9] | 6.14
* C[C@@H]1CN(c2nc(Nc3ccc(C4CCCCC4)cc3)c3cc(Br)cnc3n2)CCO1 [Example 97] | 1.35
* CC(C)N1Cc2c(Nc3ccc(-c4ccc(OCCNC(=O)OC(C)(C)C)cc4)cc3)nc(N3CCOCC3)nc2C1=O [Example 69] | 1.56
* c1cc(C2CCCCC2)ccc1Nc1nc(N2CCOC(C3CC3)C2)nc2c1COC2 (stereo not drawn) [Example 92] | 2.37
* CC(C)N1Cc2c(Nc3ccc(C4CCCCC4)cc3)nc(N3CCO[C@H](CNC(=O)OC(C)(C)C)C3)nc2C1=O [Example 17] | 1.09
* C#CCOc1ccc(-c2ccc(Nc3nc(N4CCOCC4)nc4c3CN(C(C)C)C4=O)cc2)cc1 [Example 71] | 4.13
* CCC1CN(c2nc(Nc3ccc(C4CCCCC4)cc3)c3c(n2)C(=O)N(C(C)C)C3)CCO1 (stereo not drawn) [Example 21] | 2.64
